Test system: KM12 colon
Experiment: NCI tumour cell line growth inhibition, 48 h
Each entry below lists one item and its recorded GI50 value.

INSERT INTO measurements (smiles_structure, test_readout, assay_value) VALUES
  ('CCN(CC)CCOc1ccc2c(-c3ccccc3)c(-c3ccc(OC)cc3)c(=O)oc2c1', 'GI50', '3.83 µM'),
  ('COc1ccc(-c2cc(-c3ccc(Cl)cc3)nc(SCCCC(=O)NO)n2)cc1OC', 'GI50', '1.34 µM');

Entry `CC(=O)[CH-]C(=O)c1ccccc1.CC(=O)[CH-]C(=O)c1ccccc1.CC(=O)[CH-]C(=O)c1ccccc1.[Cl-].[Hf+4]` : reported GI50 = ?
36.1 µM

Quick one: GI50 of `CN1CCC(=C(c2ccc(Cl)cc2)c2ccccn2)CC1` ?
> 100 µM

Query: GI50; subject: `Oc1ccc(/C=N/NC(=S)Nc2ccccc2)nc1`
1.91 µM
